B1: TOR1AIP2 (parent)
chain: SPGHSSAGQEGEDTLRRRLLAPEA

# Variants of: B1
# protocol-details: protein stability index of a GFP-peptide fusion (GPS, HEK-293T) (PSI 1-6); higher = more stable;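 also: lentivirally expressed fusions sorted by FACS into six bins by GFP to DsRed ratio, PSI derived from sequencing read proportions per bin multiplied by bin number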
# assay-conditions: c terminus: a fixed tail appended
readout-label: protein stability index
No unit in the answer, only the number.

These recorded examples may help you get a feel for the data.
{"sequence-record": "SPGHSSAGQEGEDTLRHRLLAPEA [R17H]", "protein stability index": 3.85}
{"sequence-record": "SPGHSSAGQEGEDTLRRRLLAAEA [P22A]", "protein stability index": 4.42}
{"sequence-record": "SPGHNSAGQEGEDTLRRRLLAPEA [S5N]", "protein stability index": 4.42}
{"sequence-record": "SPGHESAGQEGEDTLRRRLLAPEA [S5E]", "protein stability index": 4.64}
{"sequence-record": "MPGHSSAGQEGEDTLRRRLLAPEA [S1M]", "protein stability index": 4.49}

Ask: Data request, read-out protein stability index, for SPGHSNAGQEGEDTLRRRLLAPEA [S6N]
Result: 3.75

Ask: Data request, read-out protein stability index, for SPGHSSAGWEGEDTLRRRLLAPEA [Q9W]
Result: 3.04

Ask: Data request, read-out protein stability index, for SPGHSSAGQEGGDTLRRRLLAPEA [E12G]
Result: 3.73

Ask: Data request, read-out protein stability index, for SPGHSSAGQEGEDTLRRRLYAPEA [L20Y]
Result: 4.51

Ask: Data request, read-out protein stability index, for KPGHSSAGQEGEDTLRRRLLAPEA [S1K]
Result: 4.47

Ask: Data request, read-out protein stability index, for SPGHSSAGQEGEDTLRRRTLAPEA [L19T]
Result: 5.55
